Test system: MDA-MB-435 melanoma
Assay: NCI-60 one-dose screen, 48 h
Details: 10 µM
Description: Growth inhibition of the MDA-MB-435 human Melanoma tumor cell line is measured as a screen for anti-cancer activity. Cells are grown in 96 well plates and exposed to the test compound for 48 hours. Compounds are tested at a single concentration, which is 10^-5 M for most compounds. The reported endpoint is percent growth (GI% or GIPRCNT), where numbers from 0 - 100% represent growth inhibition, and numbers from -100% - 0 represent cell death. […]
This is part of a sample that, as a whole, favours compounds with a hit. Of some 83,000 tested, about 20% had one in any assay. Activity calls are given as the source filed them. How the source made its calls: active means growth percent below 10; inactive means the rest.
Labels: 1 = active, -1 = inactive

>>> assigned_category("O=c1cc2oc3cc(O)c(O)cc3c(-c3ccccc3O)c-2cc1O")
-1
>>> assigned_category("c1ccc2c(N3CCCCC3)ncnc2c1")
-1
>>> assigned_category("COc1cc(/C=C/C(=O)c2ccccc2)cc(OC)c1OC")
-1
>>> assigned_category("CC1=NN(c2ccccc2)C(=O)/C1=C\\N1CC(=O)NC1=S")
-1
>>> assigned_category("O=C(c1ccc(Cl)cc1)c1ccccc1Cl")
-1
>>> assigned_category("C[N+](C)=c1ccc2nc3c(cc(Nc4ccccc4)c4ccccc43)oc-2c1")
-1
>>> assigned_category("CCO/C=C1\\SC(=S)N(c2cccc(C)c2)C1=O")
-1
>>> assigned_category("Cn1cnc2nc(Cl)nc(Cl)c21")
1
>>> assigned_category("COc1cc(C(=O)N/N=C/c2cccc([N+](=O)[O-])c2)cc(OC)c1OC")
1
>>> assigned_category("Cc1cc(NC(=O)CSCC(=O)O)no1")
-1
>>> assigned_category("Cc1cccc([N+](=O)[O-])c1Cl")
-1
>>> assigned_category("CC(=O)N(C)c1ccc([N+](=O)[O-])cc1")
-1

====

system: HOP-62 NSCLC; assay: NCI-60 one-dose screen, 48 h; conditions: 10 µM
About 83,000 compounds went through this panel and 20% of them were active in at least one assay; those are over-represented in the sample as a whole. Activity calls are given as the source filed them. How the source made its calls: active means growth percent below 10; inactive means the rest.
Labels: 1.0 (active), 0.0 (inactive)

>>> assigned_category("O=S(=O)(Cc1ccccc1)c1ccccc1")
0.0
>>> assigned_category("CN(C)c1ccc2nc3ccc(=N)cc-3sc2c1")
0.0
>>> assigned_category("Cc1ccc(C(=O)NC2c3ccccc3Oc3ccccc32)cc1")
0.0
>>> assigned_category("COc1ccc(C2OC(N)=C(O)C2=O)cc1OC (stereo not drawn)")
0.0
>>> assigned_category("NNc1ccccc1C(=O)O")
0.0
>>> assigned_category("CC(C(=O)O)(C1CCCCC1)C1(O)CCCCC1 (stereo not drawn)")
0.0
>>> assigned_category("CCC(O)CC(CC)CO (stereo not drawn)")
0.0
>>> assigned_category("O=[N+]([O-])c1ccc(-c2noc(-c3cccs3)n2)cc1")
0.0
>>> assigned_category("O=C(O)COCC(=O)O")
0.0
>>> assigned_category("Oc1ccc(Cc2ccccc2)c2cccnc12")
0.0
>>> assigned_category("COc1cc2c3cc1Oc1c(OC)c(OC)cc4c1C(Cc1ccc(O)c(c1)Oc1ccc(cc1)CC3N(C)CC2)N(C)CC4 (stereo not drawn)")
1.0
>>> assigned_category("Cc1cc(=O)[nH]c(NN=C2CCCC2)n1")
0.0
>>> assigned_category("S=C(Nc1ccccc1)N1CCCCC1")
0.0
>>> assigned_category("CCN=c1cc2sc3cc(NCC)c(C)cc3nc-2cc1C")
0.0
>>> assigned_category("O=C(CN1CCNCC1)N1CCOCC1")
0.0
>>> assigned_category("NC(C(=O)O)C(O)c1ccco1 (stereo not drawn)")
0.0
>>> assigned_category("O=C(Cc1ccccc1)Cc1ccccc1")
0.0
>>> assigned_category("O=C(CCNNC(=O)c1ccncc1)NCc1ccccc1")
0.0
>>> assigned_category("CC(=O)Nc1c(C)cc(C)cc1C")
0.0
>>> assigned_category("CCN(CC)C(=O)/C=C(/C)c1ccccc1")
0.0
>>> assigned_category("O=C1C=C(O)C(=O)C=C1O")
0.0
>>> assigned_category("CCOC(=O)Nc1nn[nH]n1")
0.0
>>> assigned_category("O/N=C/c1ccc(O)cc1O")
0.0
>>> assigned_category("N#CCCc1ccc(O)cc1")
0.0
>>> assigned_category("O=[N+]([O-])c1ccc(S(=O)(=O)NN=C2CCCCC2)cc1")
0.0
>>> assigned_category("Cc1ccccc1N=C(c1ccccc1)C1C(=O)c2ccccc2C1=O")
0.0
>>> assigned_category("CC(=O)OC(C(=O)O)c1ccccc1 (stereo not drawn)")
0.0
>>> assigned_category("Cc1cc(=O)cc(C)n1-c1ccccc1")
0.0
>>> assigned_category("CNC(=O)c1ccccc1CC1(O)c2ccccc2Oc2ccccc21")
0.0
>>> assigned_category("CCCCCCCCCCCCCCCCC1CC(=O)OC1=O (stereo not drawn)")
0.0
>>> assigned_category("C=CCNc1ccccc1")
0.0
>>> assigned_category("CC1SC(N)=NC1=O (stereo not drawn)")
0.0
>>> assigned_category("CC1(O)CCCCC1O (stereo not drawn)")
0.0
>>> assigned_category("NC(=O)N/N=C\\c1ccco1")
0.0
>>> assigned_category("Cc1ccc(C(O)C2CC2)cc1 (stereo not drawn)")
0.0
>>> assigned_category("Cc1c(O)cccc1O")
0.0
>>> assigned_category("O=C(O)c1ccccc1NCc1ccco1")
0.0
>>> assigned_category("CC1=C(/C=C/C(C)=C/C=C/C(C)=C/CO)C(C)(C)CCC1")
0.0
>>> assigned_category("CCCCCCCO")
0.0
>>> assigned_category("CC1NC(=O)NC1CCCCCC(=O)O (stereo not drawn)")
0.0
>>> assigned_category("Cc1c(O)cnc2nn(-c3ccccc3)c(=N)n12")
0.0
>>> assigned_category("c1ncc2[nH]cnc2n1")
0.0
>>> assigned_category("COc1cc2cc(OC(C)=O)c3cc4c(cc3c2c(OC)c1OC)OCO4")
0.0
>>> assigned_category("CN(c1ccccc1)c1ncnc2c1ncn2C")
0.0
>>> assigned_category("c1ccc(Sc2ccccc2)cc1")
0.0
>>> assigned_category("O=C(Cc1ccc(OCc2ccccc2)cc1)NCc1ccc2c(c1)OCO2")
0.0
>>> assigned_category("CC(=O)OC(OC(C)=O)C1CCCO1 (stereo not drawn)")
0.0
>>> assigned_category("COc1cc(C(N)=O)cc(OC)c1OC")
0.0
>>> assigned_category("CCC/C=C(\\C)C(C)(C#N)C(=O)OCC (stereo not drawn)")
0.0
>>> assigned_category("Cc1cc(Cc2cc(C)c(N)cc2N)c(N)cc1N")
0.0
>>> assigned_category("N#CCc1ccc([N+](=O)[O-])cc1")
0.0
>>> assigned_category("CCCC1(c2ccccc2)NC(=O)NC1=O (stereo not drawn)")
0.0
>>> assigned_category("CCCCC(O)c1ccccc1 (stereo not drawn)")
0.0
>>> assigned_category("CC1(O)OC(COc2ccc(Cl)cc2)COC1O (stereo not drawn)")
0.0
>>> assigned_category("CN(C)Cc1cc(C(C)(C)CC(C)(C)C)ccc1O")
0.0
>>> assigned_category("O=S(=O)(O)C(Nc1ccccc1)c1ccccc1 (stereo not drawn)")
0.0
>>> assigned_category("O=C(OCC(O)C1OC(c2ccccc2)OC(COC(=O)c2ccccc2)C1O)c1ccccc1 (stereo not drawn)")
0.0
>>> assigned_category("COc1cc(C(=O)NC(=S)Nc2ccc3ccccc3c2)cc(OC)c1OC")
0.0

====

As shown below, each of these compounds has a reported growth value.
tested on: UO-31 renal; assay: NCI-60 one-dose screen, 48 h (100 = growth as untreated, 0 = no growth, -100 = all killed); conditions: 10 µM
This is part of a sample that, as a whole, favours compounds with a hit. Of some 83,000 tested, about 20% had one in any assay.
parameter-measured: growth (%)

>>> reported_result("CCCC(=O)Nc1ccc2c(c1)CN1C(=O)c3ccccc3C1=N2")
86.1
>>> reported_result("CC(=O)OCC1=CC2OC(=O)C3=COC(OC4OC(CO)C(O)C(O)C4O)C1C32 (stereo not drawn)")
96.7
>>> reported_result("COC(=O)Nc1cccc(Cl)c1OC")
95.6
>>> reported_result("CC(C)=NNC(N)=S")
79.3
>>> reported_result("CCc1ccc(/C(C#N)=C/C=C/c2ccccc2)cc1")
42.9
>>> reported_result("COc1cccc(/C=N/NC(=S)NC2CC3CCC2C3)c1O (stereo not drawn)")
21.8
>>> reported_result("COC(=O)/C=C1\\Sc2cc(F)ccc2NC1=O")
101
>>> reported_result("O=[N+]([O-])c1ccccc1N=Nc1ccc(O)cc1O")
66.3
>>> reported_result("CCN1C(=O)/C(=C/C=C/N(C)c2ccccc2)SC1=S")
94.2
>>> reported_result("Oc1ccc(N=Nc2ccc(Br)cc2)c(O)c1")
30.3
>>> reported_result("Cc1ccc(C(=O)NC2c3ccccc3Oc3ccccc32)cc1")
34.4
>>> reported_result("C=CCNc1nnc(C)s1")
81.1
>>> reported_result("CC(CC(=O)c1ccccc1)c1ccccc1 (stereo not drawn)")
95.4

Where do these numbers come from? They come from PubChem BioAssay (NCI).
